Source of measurements: patent US12479820B2

tested target: human LPA1 receptor (Homo sapiens)
Construct: TEV protease site; Gal4-VP16 transcription factor
Sequence (Q92633 whole entry, the tested form may be a part): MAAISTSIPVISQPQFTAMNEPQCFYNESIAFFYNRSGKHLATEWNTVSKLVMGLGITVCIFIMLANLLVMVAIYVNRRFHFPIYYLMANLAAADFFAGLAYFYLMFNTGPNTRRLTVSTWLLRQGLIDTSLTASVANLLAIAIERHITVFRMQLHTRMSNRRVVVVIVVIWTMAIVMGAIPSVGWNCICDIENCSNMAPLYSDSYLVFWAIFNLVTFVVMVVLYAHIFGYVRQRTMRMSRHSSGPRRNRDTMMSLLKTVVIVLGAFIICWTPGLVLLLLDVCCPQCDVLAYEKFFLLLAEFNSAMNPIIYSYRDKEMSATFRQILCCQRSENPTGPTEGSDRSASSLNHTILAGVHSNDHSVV
test description: Beta-arrestin recruitment assay to determine IC50 values for human LPAR1
assay context: Tango EDG2-bla U2OS cells, antagonist assay, LPA 18:1 500 nM final
Threshold 40 nM: IC50 strictly smaller gives label 1, otherwise label 0.

# smiles string, group
data = [
    ("COc1cc(Cl)ncc1NC(=O)C1(c2c(F)cccc2C(C)C)CNC1", "label 1"),
    ("COc1cc(Cl)ncc1NC(=O)C1(c2ccccc2C(C)C)CN(CCO)C1", "label 1"),
    ("CCOc1cc(Cl)ncc1NC(=O)C1(c2ccccc2C(C)C)CN(CCC(C)(C)C(=O)O)C1", "label 1"),
    ("COc1cc(Cl)ncc1NC(=O)C1(c2cc(F)ccc2C(C)C)CNC1", "label 1"),
    ("COc1cc(Cl)ncc1NC(=O)C1(c2ccccc2C(C)C)CN(CCC(C)(C)C(=O)O)C1", "label 1"),
    ("COc1cc(Cl)ncc1NC(=O)C1(c2ccccc2C(C)C)CN(C(=O)CCO)C1", "label 0"),
    ("COc1cc(Cl)ncc1NC(=O)C1(c2ncccc2C(C)C)CNC1", "label 0"),
    ("CC(C)Oc1cc(Cl)ncc1NC(=O)C1(c2ccccc2C(C)C)CNC1", "label 1"),
]
